As shown below, each of these sequences has a reported phosphorylation enrichment value.
Target system: EPHB2 (UniProt P29323)
Sequence (P29323 whole entry, looked up): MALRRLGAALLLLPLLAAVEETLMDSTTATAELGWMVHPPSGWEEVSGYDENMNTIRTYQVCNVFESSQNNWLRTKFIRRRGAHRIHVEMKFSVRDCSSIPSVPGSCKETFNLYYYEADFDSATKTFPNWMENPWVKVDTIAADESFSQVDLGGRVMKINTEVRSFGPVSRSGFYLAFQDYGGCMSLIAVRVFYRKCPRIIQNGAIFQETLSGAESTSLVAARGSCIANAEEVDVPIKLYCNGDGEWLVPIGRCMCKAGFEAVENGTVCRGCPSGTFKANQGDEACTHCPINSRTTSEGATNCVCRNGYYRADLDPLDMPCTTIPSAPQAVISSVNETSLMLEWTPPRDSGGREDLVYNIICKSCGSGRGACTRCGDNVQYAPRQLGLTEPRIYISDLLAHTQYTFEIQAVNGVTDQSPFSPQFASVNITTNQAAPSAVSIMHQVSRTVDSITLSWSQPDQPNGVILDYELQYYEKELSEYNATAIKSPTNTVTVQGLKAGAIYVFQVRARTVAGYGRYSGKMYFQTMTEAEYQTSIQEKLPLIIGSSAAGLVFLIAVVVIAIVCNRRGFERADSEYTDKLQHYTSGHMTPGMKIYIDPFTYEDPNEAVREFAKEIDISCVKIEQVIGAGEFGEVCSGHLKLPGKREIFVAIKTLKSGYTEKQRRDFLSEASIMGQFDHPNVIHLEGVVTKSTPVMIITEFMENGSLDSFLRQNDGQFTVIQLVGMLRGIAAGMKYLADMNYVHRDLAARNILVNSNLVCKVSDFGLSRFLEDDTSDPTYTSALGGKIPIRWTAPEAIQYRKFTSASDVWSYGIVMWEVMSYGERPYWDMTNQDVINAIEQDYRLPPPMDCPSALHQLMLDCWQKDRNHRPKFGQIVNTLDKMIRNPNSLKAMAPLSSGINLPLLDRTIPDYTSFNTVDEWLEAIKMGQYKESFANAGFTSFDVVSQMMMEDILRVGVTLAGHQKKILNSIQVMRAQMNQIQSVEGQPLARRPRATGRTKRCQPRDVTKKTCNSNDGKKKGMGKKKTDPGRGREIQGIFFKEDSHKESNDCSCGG
Assay summary: phosphorylation enrichment, bacterial display (enrichment ratio); higher = better substrate or ligand; peptides without Tyr show the background;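 further: 11-residue human phosphosite peptides and single-mutation variants displayed on the E. coli surface, counted by deep sequencing, each peptide's frequency after selection divided by its frequency in the unselected input library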;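 further: frequency after pTyr selection over input frequency; kinase dosed for 20-30% of maximal phosphorylation in three min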
Simply state the number, no unit and no words.

// worked examples, phosphorylation enrichment included
AFAEVYEGQVS [ALK_Y1131_G1128A]    0.504
FIGRIYLFLTK [GARS1_Y414_YF]    0.632
RYLTRYIYNRE [HLA-DQB1_Y62_V59L]    0.773
AAYNRYDQERF [CDC73_Y293]    0.463
DLGIQYKALKP [CTNNA1_Y177]    0.442
CDYKKYGKGLR [ZNF445_Y433_Y428C]    0.362

Would you kindly look at the next entry?
Query: Please look up its phosphorylation enrichment: SHSMRYFFTAV [HLA-C_Y31_D33F]
Result: 0.626

----------
Target system: Hck (UniProt P08631)
Sequence (P08631 whole entry, looked up): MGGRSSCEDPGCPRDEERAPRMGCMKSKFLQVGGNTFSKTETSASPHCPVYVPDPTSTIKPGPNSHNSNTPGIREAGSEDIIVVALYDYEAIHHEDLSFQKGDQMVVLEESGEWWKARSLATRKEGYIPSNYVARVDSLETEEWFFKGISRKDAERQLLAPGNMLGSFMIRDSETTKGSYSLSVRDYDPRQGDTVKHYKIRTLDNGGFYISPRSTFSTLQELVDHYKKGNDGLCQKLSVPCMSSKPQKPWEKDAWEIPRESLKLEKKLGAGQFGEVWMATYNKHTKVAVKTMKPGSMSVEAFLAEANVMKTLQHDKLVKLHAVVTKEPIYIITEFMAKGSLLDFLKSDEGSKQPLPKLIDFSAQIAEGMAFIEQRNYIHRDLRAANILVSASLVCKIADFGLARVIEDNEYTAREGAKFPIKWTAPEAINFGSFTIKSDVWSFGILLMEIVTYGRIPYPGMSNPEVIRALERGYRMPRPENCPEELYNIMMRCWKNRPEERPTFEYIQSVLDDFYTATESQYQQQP
Assay summary: phosphorylation enrichment, bacterial display (enrichment ratio); higher = better substrate or ligand; peptides without Tyr show the background
Mark fulfilled for reported phosphorylation enrichment of 0.5 or greater; mark not fulfilled for anything smaller.

These recorded examples may help you get a feel for the data.
ISTAGYSFPEL [EDAR_Y406_I408F]    not fulfilled
HFEFKYVINAI [MAOA_Y268_C266F_YF]    fulfilled
RRGLLYDSDEE [MCM2_Y137]    fulfilled

Query: Can SHSMRYFFTAV [HLA-C_Y31_D33F] be said to have phosphorylation enrichment at or above 0.5?
Result: fulfilled

Query: Can YPKVRYHWLVL [APTX_Y214_A212V] be said to have phosphorylation enrichment at or above 0.5?
Result: fulfilled

----------
Target system: Jak2 (UniProt O60674)
Sequence (O60674 whole entry, looked up): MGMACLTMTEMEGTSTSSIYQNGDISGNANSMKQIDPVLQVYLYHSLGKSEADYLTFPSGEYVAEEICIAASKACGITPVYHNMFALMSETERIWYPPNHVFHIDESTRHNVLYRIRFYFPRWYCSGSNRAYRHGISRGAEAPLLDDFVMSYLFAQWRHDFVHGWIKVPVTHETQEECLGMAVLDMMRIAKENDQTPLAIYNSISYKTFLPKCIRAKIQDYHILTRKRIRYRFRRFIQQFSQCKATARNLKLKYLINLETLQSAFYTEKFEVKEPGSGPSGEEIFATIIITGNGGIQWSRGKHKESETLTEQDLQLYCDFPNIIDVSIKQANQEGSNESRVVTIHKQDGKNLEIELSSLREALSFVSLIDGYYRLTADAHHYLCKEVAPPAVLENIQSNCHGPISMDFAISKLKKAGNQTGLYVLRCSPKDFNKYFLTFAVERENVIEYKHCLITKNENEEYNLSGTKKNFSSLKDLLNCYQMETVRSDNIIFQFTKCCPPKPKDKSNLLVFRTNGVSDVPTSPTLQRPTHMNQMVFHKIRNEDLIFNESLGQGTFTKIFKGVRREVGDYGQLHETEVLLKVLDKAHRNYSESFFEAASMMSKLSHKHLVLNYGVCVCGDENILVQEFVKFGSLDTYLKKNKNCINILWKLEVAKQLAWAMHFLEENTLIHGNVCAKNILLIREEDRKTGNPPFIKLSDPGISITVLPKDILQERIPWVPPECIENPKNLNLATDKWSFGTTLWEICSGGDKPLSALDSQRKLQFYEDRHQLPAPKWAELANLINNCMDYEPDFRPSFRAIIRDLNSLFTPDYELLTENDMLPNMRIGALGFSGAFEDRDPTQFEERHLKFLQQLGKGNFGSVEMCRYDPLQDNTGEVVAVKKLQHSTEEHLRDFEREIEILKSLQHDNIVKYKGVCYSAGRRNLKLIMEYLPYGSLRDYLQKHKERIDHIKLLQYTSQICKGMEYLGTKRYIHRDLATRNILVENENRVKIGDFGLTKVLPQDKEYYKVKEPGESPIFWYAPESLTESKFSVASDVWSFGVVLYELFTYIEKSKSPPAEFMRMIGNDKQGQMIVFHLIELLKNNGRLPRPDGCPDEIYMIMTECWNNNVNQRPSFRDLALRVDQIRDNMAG
Assay summary: phosphorylation enrichment, bacterial display (enrichment ratio); higher = better substrate or ligand; peptides without Tyr show the background
Mark criterion met for reported phosphorylation enrichment of 1 or greater; mark criterion not met for anything smaller.

Query: Can HVIKFYGACSQ [RET_Y791_L790F] be said to have phosphorylation enrichment at or above 1?
Result: criterion met

Query: Can IQRSLYDCPAS [PDGFRA_Y762_R764C] be said to have phosphorylation enrichment at or above 1?
Result: criterion not met

Query: Can TYAVSYLPDMS [FLNC_Y1602_T1599A] be said to have phosphorylation enrichment at or above 1?
Result: criterion not met

Query: Can AVAFLYYKSIG [ADGRL4_Y301_V300L] be said to have phosphorylation enrichment at or above 1?
Result: criterion met

Query: Can EVESPYEVRDF [GIGYF2_Y1168_H1171R_YF] be said to have phosphorylation enrichment at or above 1?
Result: criterion met

Query: Can TTPGPYRSIFF [MPG_Y71_YF] be said to have phosphorylation enrichment at or above 1?
Result: criterion not met

Query: Can GEVLVYVEDPA [FLNA_Y319] be said to have phosphorylation enrichment at or above 1?
Result: criterion met

Query: Can DLQDEYDFKRK [STAT1_Y170_C174R] be said to have phosphorylation enrichment at or above 1?
Result: criterion not met

Query: Can YGTAQYCCRMG [LRRK2_Y2023_I2020T] be said to have phosphorylation enrichment at or above 1?
Result: criterion not met

Query: Can NARGLYYKLHN [GATA2_Y376_C373R] be said to have phosphorylation enrichment at or above 1?
Result: criterion met

Query: Can NGSFLYVIISQ [LRP1B_Y1988_R1987L] be said to have phosphorylation enrichment at or above 1?
Result: criterion met

Query: Can LGGAMYFLEAE [PKHD1_Y452_YF] be said to have phosphorylation enrichment at or above 1?
Result: criterion met

Query: Can TGVWDYIHVVD [GALE_Y241_R239W] be said to have phosphorylation enrichment at or above 1?
Result: criterion met

Numbers sourced from the supplement of paper PMC10065799.
